src = the supplement of paper PMC6555819

PBM binding z-score values by entry
System: RARg:RXRa (NR concentration 270 nM, RXRa partner concentration 90 nM)
Assay: PBM binding z-score (relative to random genomic background probes); higher = stronger binding; sequences stand for … in GC…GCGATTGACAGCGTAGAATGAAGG

# count of solved cases: 5
monomer.sequence	PBM binding z-score
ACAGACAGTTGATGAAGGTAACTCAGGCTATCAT	0.00583
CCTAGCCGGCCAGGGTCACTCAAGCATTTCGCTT	3.09
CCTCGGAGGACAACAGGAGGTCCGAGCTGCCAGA	0.372
TGAAAGAGGTTAAAGATCAGGGAACGTGGCGTCG	2.9
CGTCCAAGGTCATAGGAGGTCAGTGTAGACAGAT	6.73

query: Need PBM binding z-score of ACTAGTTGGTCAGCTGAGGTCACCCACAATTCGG , thanks.
result: 4.14

query: Need PBM binding z-score of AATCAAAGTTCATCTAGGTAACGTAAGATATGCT , thanks.
result: 5.18

----------
System: PPARg DBDmut IVT, anti-PPARg (DBD mutation: PPARg1 K132A/R137A, NR concentration 270 nM)
Experiment: PBM binding z-score (relative to random genomic background probes); higher = stronger binding; sequences stand for … in GC…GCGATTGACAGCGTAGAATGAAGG
recorded.metric: PBM binding z-score
Just the number, please, no unit after it.

# count of solved cases: 2
monomer.sequence	PBM binding z-score
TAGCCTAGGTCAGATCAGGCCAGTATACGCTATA	-0.493
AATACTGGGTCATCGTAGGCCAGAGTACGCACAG	2.15

query: Need PBM binding z-score of TCTCGGAGGACCCGAAAGGTCAGAGCTCGACATC , thanks.
result: -0.929

query: Need PBM binding z-score of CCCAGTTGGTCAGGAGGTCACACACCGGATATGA , thanks.
result: -0.356

query: Need PBM binding z-score of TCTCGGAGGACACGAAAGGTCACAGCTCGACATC , thanks.
result: 0.445

query: Need PBM binding z-score of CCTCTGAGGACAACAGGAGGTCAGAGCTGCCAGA , thanks.
result: -0.809

query: Need PBM binding z-score of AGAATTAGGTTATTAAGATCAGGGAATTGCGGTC , thanks.
result: 1.27

----------
PBM binding z-score values by entry
Test system: PPARg:RXRa DBDmut IVT, anti-RXR (DBD mutation: RXRa K156A/R161A, NR concentration 270 nM, RXRa partner concentration 90 nM)
Assay: PBM binding z-score (relative to random genomic background probes); higher = stronger binding; sequences stand for … in GC…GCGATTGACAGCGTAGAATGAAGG
Just the number, please, no unit after it.

# count of solved cases: 8
monomer.sequence	PBM binding z-score
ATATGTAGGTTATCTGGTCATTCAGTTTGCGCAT	7.43
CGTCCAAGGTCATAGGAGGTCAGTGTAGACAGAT	3.65
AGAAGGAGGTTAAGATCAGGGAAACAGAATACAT	1.24
CGTCAAAGTACAAGGTAACGTAACAGAAAGCAGC	0.112
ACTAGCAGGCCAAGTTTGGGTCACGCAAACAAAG	1.23
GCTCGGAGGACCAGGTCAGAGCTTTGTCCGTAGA	-0.0233
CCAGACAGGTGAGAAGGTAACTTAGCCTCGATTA	0.936
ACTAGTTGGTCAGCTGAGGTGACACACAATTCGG	1.56

query: Need PBM binding z-score of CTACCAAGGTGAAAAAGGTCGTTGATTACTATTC , thanks.
result: 1.42

query: Need PBM binding z-score of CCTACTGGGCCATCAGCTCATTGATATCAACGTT , thanks.
result: 3.97

query: Need PBM binding z-score of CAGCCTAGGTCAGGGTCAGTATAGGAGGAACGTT , thanks.
result: 1.2

query: Need PBM binding z-score of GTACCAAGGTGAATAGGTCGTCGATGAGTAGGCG , thanks.
result: 1.91

query: Need PBM binding z-score of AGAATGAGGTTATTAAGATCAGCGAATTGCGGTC , thanks.
result: 3.16

query: Need PBM binding z-score of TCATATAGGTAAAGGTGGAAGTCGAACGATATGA , thanks.
result: 3.45

query: Need PBM binding z-score of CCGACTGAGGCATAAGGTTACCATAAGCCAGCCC , thanks.
result: 0.216

query: Need PBM binding z-score of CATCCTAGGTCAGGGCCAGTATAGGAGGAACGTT , thanks.
result: 3.29

query: Need PBM binding z-score of CCAGACCGGTGAGAAGGTAACTCAGCCTCGATTA , thanks.
result: -0.324

query: Need PBM binding z-score of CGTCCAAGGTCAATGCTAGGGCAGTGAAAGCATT , thanks.
result: 2.64
